system-name: recombinant human KDM5B (Homo sapiens)
Sequence (Q9UGL1 374-755 limits assumed): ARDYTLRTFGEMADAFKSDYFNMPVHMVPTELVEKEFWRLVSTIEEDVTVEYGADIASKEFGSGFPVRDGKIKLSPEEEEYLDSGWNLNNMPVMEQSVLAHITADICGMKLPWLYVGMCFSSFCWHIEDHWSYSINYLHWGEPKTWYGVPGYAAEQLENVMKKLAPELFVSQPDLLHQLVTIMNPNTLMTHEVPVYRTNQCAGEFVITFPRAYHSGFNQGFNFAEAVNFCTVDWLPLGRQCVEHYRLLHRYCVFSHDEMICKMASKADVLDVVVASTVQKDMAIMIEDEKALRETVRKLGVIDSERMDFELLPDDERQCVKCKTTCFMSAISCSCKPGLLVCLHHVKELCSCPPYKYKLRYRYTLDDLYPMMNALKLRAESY
procedure-text: 14CO2 capture enzymatic assay (decarboxylation of [1-14C] αKG), KDM5B
test-settings: 10 μM [1-14C] αKG, 90 μM non-labeled αKG, 50 μM peptide substrate, 37° C., 1 hour, final 1% DMSO
# pIC50 per record follows
Here pIC50 is given on a logarithmic scale as minus log10 of the concentration in mol/L.

# structure-notation, system-name, pIC50
rows = [
    ("N#Cc1cc(-c2cccc(C(F)(F)F)c2)nc(C(=O)CCC(=O)O)c1O", "recombinant human KDM5B (Homo sapiens)", 6.70),
    ("N#Cc1cc(-c2ccncc2)nc(C(=O)CCC(=O)O)c1O", "recombinant human KDM5B (Homo sapiens)", 6.89),
    ("N#Cc1cc(CC2CCCCC2)nc(C(=O)CCC(=O)O)c1O", "recombinant human KDM5B (Homo sapiens)", 6.38),
    ("N#Cc1cc(-c2ccccc2F)nc(C(=O)CCC(=O)O)c1O", "recombinant human KDM5B (Homo sapiens)", 6.82),
    ("N#Cc1cc(Cc2c(F)ccc(F)c2F)nc(C(=O)CCC(=O)O)c1O", "recombinant human KDM5B (Homo sapiens)", 6.57),
    ("N#Cc1cc(-c2ccc(Cl)cc2)nc(C(=O)CCC(=O)O)c1O", "recombinant human KDM5B (Homo sapiens)", 6.74),
]

Please give the documented pIC50 of Cc1ccc(-c2cc(C#N)c(O)c(C(=O)CCC(=O)O)n2)c(C)c1
6.48

Please give the documented pIC50 of N#Cc1cc(Cc2c(F)ccc(Cl)c2F)nc(C(=O)CCC(=O)O)c1O
6.54

Please give the documented pIC50 of Cc1c(F)cccc1-c1cc(C#N)c(O)c(C(=O)CCC(=O)O)n1
6.41

* * *

system-name: recombinant human KDM4A (Homo sapiens)
Sequence (O75164 1-359 limits assumed): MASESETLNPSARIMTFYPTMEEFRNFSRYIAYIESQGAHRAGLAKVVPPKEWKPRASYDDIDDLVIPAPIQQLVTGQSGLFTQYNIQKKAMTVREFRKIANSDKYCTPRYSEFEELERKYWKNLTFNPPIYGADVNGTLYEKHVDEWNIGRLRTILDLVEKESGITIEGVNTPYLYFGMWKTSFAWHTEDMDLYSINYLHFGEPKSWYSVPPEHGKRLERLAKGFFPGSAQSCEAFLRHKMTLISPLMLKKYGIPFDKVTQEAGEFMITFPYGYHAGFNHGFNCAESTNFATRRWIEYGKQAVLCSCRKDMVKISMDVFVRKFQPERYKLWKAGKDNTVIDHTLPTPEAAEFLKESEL
procedure-text: 14CO2 capture enzymatic assay (decarboxylation of [1-14C] αKG), KDM4A
test-settings: 10 μM [1-14C] αKG, 90 μM non-labeled αKG, 50 μM peptide substrate, 37° C., 1 hour, final 1% DMSO
pIC50: −log10 of the molar value.
# pIC50 per record follows

Please give the documented pIC50 of COc1ccc(Cc2cc(C#N)c(O)c(C(=O)CCC(=O)O)n2)cc1
< 4.40

Please give the documented pIC50 of N#Cc1cc(Br)c(O)c(C(=O)CCC(=O)O)n1
4.72

Please give the documented pIC50 of Cc1cccc(-c2cc(C#N)c(O)c(C(=O)CCC(=O)O)n2)c1Cl
< 4.40

Please give the documented pIC50 of Cc1ccc(F)cc1-c1cc(C#N)c(O)c(C(=O)CCC(=O)O)n1
< 4.40

Please give the documented pIC50 of N#Cc1cc(Cc2cccc(Cl)c2Cl)nc(C(=O)CCC(=O)O)c1O
4.85

Please give the documented pIC50 of Cc1c(-c2cc(C#N)c(O)c(C(=O)CCC(=O)O)n2)cccc1C(F)(F)F
< 4.40

Please give the documented pIC50 of N#Cc1cc(Cc2c(F)cccc2F)nc(C(=O)CCC(=O)O)c1O
< 4.40

Please give the documented pIC50 of N#Cc1cc(Cc2ccccc2-c2ccccc2)nc(C(=O)CCC(=O)O)c1O
< 4.40

Please give the documented pIC50 of N#Cc1cc(Cc2c(F)cccc2C(F)(F)F)nc(C(=O)CCC(=O)O)c1O
< 4.40

* * *

system-name: recombinant human KDM5B (Homo sapiens)
procedure-text: 14CO2 capture enzymatic assay (decarboxylation of [1-14C] αKG), KDM5B
test-settings: 10 μM [1-14C] αKG, 90 μM non-labeled αKG, 50 μM peptide substrate, 37° C., 1 hour, final 1% DMSO
# pIC50 per record follows
Here pIC50 is given on a logarithmic scale as minus log10 of the concentration in mol/L.

Please give the documented pIC50 of COc1cc(Cl)c(Cc2cc(C#N)c(O)c(C(=O)CCC(=O)O)n2)c(Cl)c1 [Example 147]
6.80

Please give the documented pIC50 of N#Cc1cc(-c2ccccc2Cl)nc(C(=O)CCC(=O)O)c1O [Example 70]
6.52

Please give the documented pIC50 of Cc1cccc(-c2cc(C#N)c(O)c(C(=O)CCC(=O)O)n2)c1Cl [Example 101]
6.51

Please give the documented pIC50 of N#Cc1cc(Oc2ccccc2)cc(C(=O)CCC(=O)O)c1O [Example 132]
6.51

Please give the documented pIC50 of N#Cc1cc(Cc2ccc(C(F)(F)F)cc2)nc(C(=O)CCC(=O)O)c1O [Example 39]
6.89

* * *

system-name: recombinant human KDM5B (Homo sapiens)
procedure-text: 14CO2 capture enzymatic assay (decarboxylation of [1-14C] αKG), KDM5B
test-settings: 10 μM [1-14C] αKG, 90 μM non-labeled αKG, 50 μM peptide substrate, 37° C., 1 hour, final 1% DMSO
quantity: pIC50
Here pIC50 is given on a logarithmic scale as minus log10 of the concentration in mol/L.

# structure-notation, pIC50
rows = [
    ("O=C(O)CCC(=O)c1nc(Br)cc(Br)c1O", 6.35),
    ("N#Cc1cc(Sc2ccccc2)nc(C(=O)CCC(=O)O)c1O", 7.05),
    ("N#Cc1cc(-c2cccnc2)nc(C(=O)CCC(=O)O)c1O", 6.85),
    ("Cn1cc(-c2cc(C#N)c(O)c(C(=O)CCC(=O)O)n2)cn1", 6.68),
    ("N#Cc1cc(Cc2c(Cl)cc(OC(F)(F)F)cc2Cl)nc(C(=O)CCC(=O)O)c1O", 6.64),
]

Write down the reported pIC50 (system: recombinant human KDM5B (Homo sapiens)) of N#Cc1cc(Cc2cccc(OC(F)(F)F)c2)nc(C(=O)CCC(=O)O)c1O
6.51

Write down the reported pIC50 (system: recombinant human KDM5B (Homo sapiens)) of N#Cc1cc(Cc2c(Cl)ccc(F)c2Cl)nc(C(=O)CCC(=O)O)c1O
7.15

Write down the reported pIC50 (system: recombinant human KDM5B (Homo sapiens)) of Cc1ccc(Cl)cc1-c1cc(C#N)c(O)c(C(=O)CCC(=O)O)n1
6.77

Write down the reported pIC50 (system: recombinant human KDM5B (Homo sapiens)) of Cc1cccc(C)c1Cc1cc(C#N)c(O)c(C(=O)CCC(=O)O)n1
6.64

* * *

system-name: recombinant human KDM5B (Homo sapiens)
procedure-text: 14CO2 capture enzymatic assay (decarboxylation of [1-14C] αKG), KDM5B
test-settings: 10 μM [1-14C] αKG, 90 μM non-labeled αKG, 50 μM peptide substrate, 37° C., 1 hour, final 1% DMSO
# IC50 per record follows
A number alone suffices; assume nM.

These solved cases illustrate the format of a correct answer.
# molecule, result-units, numeric-readout
rows = [
    ("Cc1cccc(C)c1C(=O)Nc1cc(C#N)c(O)c(C(=O)CCC(=O)O)n1 [Example 129]", "nM", 560),
    ("N#Cc1cc(Oc2ccc(F)cc2)cc(C(=O)CCC(=O)O)c1O [Example 142]", "nM", 280),
    ("Cc1ccc(Cl)c(Cc2cc(C#N)c(O)c(C(=O)CCC(=O)O)n2)c1Cl [Example 155]", "nM", 180),
    ("N#Cc1cc(Cc2cccc(Cl)c2Cl)nc(C(=O)CCC(=O)O)c1O [Example 65]", "nM", 180),
]

Here is another molecule to look at.
Please give the documented IC50 of Cc1cc(Cl)c(Cc2cc(C#N)c(O)c(C(=O)CCC(=O)O)n2)c(Cl)c1 [Example 127]
60

* * *

# pIC50 per record follows
system-name: recombinant human KDM5B (Homo sapiens)
procedure-text: 14CO2 capture enzymatic assay (decarboxylation of [1-14C] αKG), KDM5B
test-settings: 10 μM [1-14C] αKG, 90 μM non-labeled αKG, 50 μM peptide substrate, 37° C., 1 hour, final 1% DMSO
Here pIC50 is given on a logarithmic scale as minus log10 of the concentration in mol/L.

These solved cases illustrate the format of a correct answer.
# structure-notation, pIC50
records = [
    ("N#Cc1cc(-c2cccc3ncccc23)nc(C(=O)CCC(=O)O)c1O", 6.41),
    ("N#Cc1cc(Cc2ccc(F)cc2)nc(C(=O)CCC(=O)O)c1O", 7.22),
]

Write down the reported pIC50 (system: recombinant human KDM5B (Homo sapiens)) of COc1cccc(-c2cc(C#N)c(O)c(C(=O)CCC(=O)O)n2)c1Cl
6.85

Write down the reported pIC50 (system: recombinant human KDM5B (Homo sapiens)) of N#Cc1cc(Cc2c(F)cccc2F)nc(C(=O)CCC(=O)O)c1O
6.60

Write down the reported pIC50 (system: recombinant human KDM5B (Homo sapiens)) of N#Cc1cc(-c2ccccc2Cl)cc(C(=O)CCC(=O)O)c1O
6.55

Write down the reported pIC50 (system: recombinant human KDM5B (Homo sapiens)) of N#Cc1cc(Br)c(O)c(C(=O)CCC(=O)O)n1
6.51

Write down the reported pIC50 (system: recombinant human KDM5B (Homo sapiens)) of N#Cc1cc(Cc2ccccc2Cl)nc(C(=O)CCC(=O)O)c1O
6.68

Write down the reported pIC50 (system: recombinant human KDM5B (Homo sapiens)) of N#Cc1cc(Cc2c(Cl)cccc2C#N)nc(C(=O)CCC(=O)O)c1O
6.74

Write down the reported pIC50 (system: recombinant human KDM5B (Homo sapiens)) of O=C(O)CCC(=O)c1nc(C(F)(F)F)cc(C(F)(F)F)c1O
6.64
